test system: 769-P; test: minimum viability across doses, drug + dasatinib, relative to DMSO (fraction); higher = less growth inhibition; details: treatment: drug + dasatinib (fixed dose, not stated); 5 days
observable: minimum viability across doses
Answers are plain numbers.

Some solved cases for reference:
compound	minimum viability across doses
CN1CCN(c2ccc([N+](=O)[O-])c3no[n+]([O-])c23)CC1 + Cc1nc(Nc2ncc(C(=O)Nc3c(C)cccc3Cl)s2)cc(N2CCN(CCO)CC2)n1	0.644
Cc1cnc(Nc2ccc(OCCN3CCCC3)cc2)nc1Nc1cccc(S(=O)(=O)NC(C)(C)C)c1 + Cc1nc(Nc2ncc(C(=O)Nc3c(C)cccc3Cl)s2)cc(N2CCN(CCO)CC2)n1	0.0211
CS(=O)(=O)O.Cc1ccc(NC(=O)c2ccc(CN3CCN(C)CC3)cc2)cc1Nc1nccc(-c2cccnc2)n1 [Imatinib Mesylate] + Cc1nc(Nc2ncc(C(=O)Nc3c(C)cccc3Cl)s2)cc(N2CCN(CCO)CC2)n1	0.562
O=C(Cc1ccc(-c2ccc(OCCN3CCOCC3)cc2)cn1)NCc1ccccc1 [KX2-391] + Cc1nc(Nc2ncc(C(=O)Nc3c(C)cccc3Cl)s2)cc(N2CCN(CCO)CC2)n1	0.0616

Let us examine a further case.
Form: compound = C[C@@H]1CCN(C(=O)CC#N)C[C@@H]1N(C)c1ncnc2[nH]ccc12 + Cc1nc(Nc2ncc(C(=O)Nc3c(C)cccc3Cl)s2)cc(N2CCN(CCO)CC2)n1 ; minimum viability across doses = 0.664

---

Assign minimum viability across doses to each entry below.
tested on: TK-10; test: minimum viability across doses, drug + dasatinib, relative to DMSO (fraction); higher = less growth inhibition; conditions: treatment: drug + dasatinib (fixed dose, not stated); 5 days
Answers are plain numbers.

molecule	minimum viability across doses
Cc1cccc(-c2nc(C(C)(C)C)[nH]c2-c2ccc3nccnc3c2)n1 + Cc1nc(Nc2ncc(C(=O)Nc3c(C)cccc3Cl)s2)cc(N2CCN(CCO)CC2)n1	0.61

Let us examine a further case.
Item CC(O)C(=O)O.CC(O)C(=O)O.CN1CCN(c2ccc3nc(-c4c(N)c5c(F)cccc5[nH]c4=O)[nH]c3c2)CC1 [Dovitinib Dilactic acid (TKI258 Dilactic acid)] + Cc1nc(Nc2ncc(C(=O)Nc3c(C)cccc3Cl)s2)cc(N2CCN(CCO)CC2)n1 was tested on TK-10; the reported minimum viability across doses is 0.289

---

tested on: TK-10; assay: GI50 of drug in presence of dasatinib; higher = less potent; details: treatment: drug + dasatinib (fixed dose, not stated); 5 days
observable: GI50 of drug (nM)
Give bare numbers, in nM.

Some solved cases for reference:
molecule	GI50 of drug / nM
Cc1ccc([N+](=O)[O-])cc1S(=O)(=O)N(C)/N=C/c1cnc2ccc(Br)cn12.Cl [PIK-75] + Cc1nc(Nc2ncc(C(=O)Nc3c(C)cccc3Cl)s2)cc(N2CCN(CCO)CC2)n1 [dasatinib]	45.1
O=c1cc(N2CCOCC2)oc2c(-c3cccc4c3sc3ccccc34)cccc12 + Cc1nc(Nc2ncc(C(=O)Nc3c(C)cccc3Cl)s2)cc(N2CCN(CCO)CC2)n1 [dasatinib]	4630

Form: molecule = C[C@@H]1COC(Nc2ccc3ncnc(Nc4ccc(OCc5nccs5)c(Cl)c4)c3c2)=N1 + Cc1nc(Nc2ncc(C(=O)Nc3c(C)cccc3Cl)s2)cc(N2CCN(CCO)CC2)n1 [dasatinib] ; GI50 of drug = 614

---

tested on: 786-O; assay: minimum viability across doses, drug alone, relative to DMSO (fraction); higher = less growth inhibition; conditions: treatment: drug alone; 5 days
observable: minimum viability across doses
Answers are plain numbers.

Batch lookup, minimum viability across doses per entry.
1. CCCS(=O)(=O)Nc1ccc(F)c(C(=O)c2c[nH]c3ncc(Cl)cc23)c1F
2. Cc1ccccc1-n1c(Cn2cnc3c(N)ncnc32)nc2cccc(C)c2c1=O
3. Nc1nc(Nc2ccc(S(N)(=O)=O)cc2)nn1C(=O)c1c(F)cccc1F
4. Cc1ccc(-n2nc(C(C)(C)C)cc2NC(=O)Nc2ccc(OCCN3CCOCC3)c3ccccc23)cc1
5. Cc1[nH]c(/C=C2\C(=O)Nc3ccc(S(=O)(=O)Cc4c(Cl)cccc4Cl)cc32)c(C)c1C(=O)N1CCC[C@@H]1CN1CCCC1
6. COc1ccc(S(=O)(=O)N(C(C)=O)c2ccccc2/C=C/c2cc[n+]([O-])cc2)cc1
7. CNC(=O)CN1CCC(Oc2cc3c(Nc4cccc(Cl)c4F)ncnc3cc2OC)CC1
8. O=C(NC1CCNCC1)c1n[nH]cc1NC(=O)c1c(Cl)cccc1Cl

1. 0.335
2. 0.434
3. 0.00276
4. 0.748
5. 0.0112
6. 0.00365
7. 0.474
8. 0.00447

Batch lookup, minimum viability across doses per entry.
1. CO[C@H]1C[C@@H]2CC[C@@H](C)[C@@](O)(O2)C(=O)C(=O)N2CCCC[C@H]2C(=O)O[C@H]([C@H](C)C[C@@H]2CC[C@@H](OCCO)[C@H](OC)C2)CC(=O)[C@H](C)/C=C(\C)[C@@H](O)[C@@H](OC)C(=O)[C@H](C)C[C@H](C)/C=C/C=C/C=C/1C [Everolimus (RAD001)]
2. COCC[n+]1c2c(n(Cc3cnccn3)c1C)C(=O)c1ccccc1C2=O
3. O=c1sn(-c2cccc3ccccc23)c(=O)n1Cc1ccccc1
4. c1ccc2c(-c3cnn4cc(-c5ccc(N6CCNCC6)cc5)cnc34)ccnc2c1
5. CN[C@@H]1C[C@H]2O[C@@](C)([C@@H]1OC)n1c3ccccc3c3c4c(c5c6ccccc6n2c5c31)C(=O)NC4
6. CC(C)c1cnn2c(NCc3ccccc3)cc(NCCCCCCN)nc12.Cl [BS-181 HCl]

[0.293, 0.00377, 0.485, 0.0032, 0.00288, 0.424]

---

tested on: ACHN; assay: minimum viability across doses, drug + dasatinib, relative to DMSO (fraction); higher = less growth inhibition; details: treatment: drug + dasatinib (fixed dose, not stated); 5 days
observable: minimum viability across doses
Numbers only.

Some solved cases for reference:
compound	assay-system	observable	val
CS(=O)(=O)O.O=C(Nc1cccc(Cl)c1)Nc1ncc(CCNc2ncnc3ccsc23)s1 [SNS-314] + Cc1nc(Nc2ncc(C(=O)Nc3c(C)cccc3Cl)s2)cc(N2CCN(CCO)CC2)n1	ACHN	minimum viability across doses	0.144
COc1ccc(-c2cc3c(C)nc(N)nc3n([C@H]3CC[C@H](OCCO)CC3)c2=O)cn1 + Cc1nc(Nc2ncc(C(=O)Nc3c(C)cccc3Cl)s2)cc(N2CCN(CCO)CC2)n1	ACHN	minimum viability across doses	0.0415

Let us examine a further case.
Form: compound = CCn1c(N)c(C(=O)NC)c(=O)c2ccc(C#C[C@@](C)(O)COC)nc21 + Cc1nc(Nc2ncc(C(=O)Nc3c(C)cccc3Cl)s2)cc(N2CCN(CCO)CC2)n1 ; minimum viability across doses = 0.432

---

Assign minimum viability across doses to each entry below.
tested on: SN12C; assay: minimum viability across doses, drug + dasatinib, relative to DMSO (fraction); higher = less growth inhibition; conditions: treatment: drug + dasatinib (fixed dose, not stated); 5 days
Answers are plain numbers.

Some solved cases for reference:
compound	val
Oc1cccc(-c2nc(N3CCOCC3)c3oc4ncccc4c3n2)c1 [PI-103] + Cc1nc(Nc2ncc(C(=O)Nc3c(C)cccc3Cl)s2)cc(N2CCN(CCO)CC2)n1	0.116
CCS(=O)(=O)Nc1ccc2c(c1)/C(=C(/Nc1ccc(CN3CCCCC3)cc1)c1ccccc1)C(=O)N2 [Hesperadin] + Cc1nc(Nc2ncc(C(=O)Nc3c(C)cccc3Cl)s2)cc(N2CCN(CCO)CC2)n1	0.00226

Let us examine a further case.
Form: compound = COc1cc2nccc(Oc3ccc(NC(=O)C4(C(=O)Nc5ccc(F)cc5)CC4)cc3)c2cc1OC [XL-184 free base (Cabozantinib)] + Cc1nc(Nc2ncc(C(=O)Nc3c(C)cccc3Cl)s2)cc(N2CCN(CCO)CC2)n1 ; minimum viability across doses = 0.213

---

tested on: UO-31; assay: AUC of dose-response viability curve, drug + dasatinib, normalised to DMSO (arbitrary (AUC of normalised viability)); higher = less growth inhibition; conditions: treatment: drug + dasatinib (fixed dose, not stated); 5 days
observable: AUC of dose-response viability curve

compound	AUC of dose-response viability curve
N#Cc1c(O)c2c(-c3ccc(-c4ccccc4O)cc3)csc2[nH]c1=O + Cc1nc(Nc2ncc(C(=O)Nc3c(C)cccc3Cl)s2)cc(N2CCN(CCO)CC2)n1	4.43
S=C(NCc1ccc2c(c1)OCO2)N1CCN(c2ncnc3c2oc2ccccc23)CC1 [Amuvatinib (MP-470)] + Cc1nc(Nc2ncc(C(=O)Nc3c(C)cccc3Cl)s2)cc(N2CCN(CCO)CC2)n1	3.23
O=c1[nH]c2ccc(Cl)cc2c(N[C@@H]2CN3CCC2CC3)c1-c1nc2ccccc2[nH]1 [CHIR-124] + Cc1nc(Nc2ncc(C(=O)Nc3c(C)cccc3Cl)s2)cc(N2CCN(CCO)CC2)n1	1.52
FC(F)(F)c1ccc(Nc2nc3cc(Oc4ccnc(-c5ncc(C(F)(F)F)[nH]5)c4)ccc3[nH]2)cc1 [Raf265 derivative] + Cc1nc(Nc2ncc(C(=O)Nc3c(C)cccc3Cl)s2)cc(N2CCN(CCO)CC2)n1	3.44
CNC(=O)c1cccc(-c2ccc3c(N4CCOC[C@@H]4C)nc(N4CCOC[C@@H]4C)nc3n2)c1 [AZD2014] + Cc1nc(Nc2ncc(C(=O)Nc3c(C)cccc3Cl)s2)cc(N2CCN(CCO)CC2)n1	2.06

Batch lookup, AUC of dose-response viability curve per entry.
1. COc1cc2c(N3CCN(C(=O)Nc4ccc(OC(C)C)cc4)CC3)ncnc2cc1OCCCN1CCCCC1 [Tandutinib (MLN518)] + Cc1nc(Nc2ncc(C(=O)Nc3c(C)cccc3Cl)s2)cc(N2CCN(CCO)CC2)n1
2. Cc1cccc(-c2nc(C(C)(C)C)[nH]c2-c2ccc3nccnc3c2)n1 + Cc1nc(Nc2ncc(C(=O)Nc3c(C)cccc3Cl)s2)cc(N2CCN(CCO)CC2)n1

3.35
4.8

Batch lookup, AUC of dose-response viability curve per entry.
1. CC(C)n1nc(-c2ccc3oc(N)nc3c2)c2c(N)ncnc21 [INK 128] + Cc1nc(Nc2ncc(C(=O)Nc3c(C)cccc3Cl)s2)cc(N2CCN(CCO)CC2)n1
2. COC1=CC(c2cc3ccccc3[nH]2)=N/C1=C\c1[nH]c(C)cc1C.CS(=O)(=O)O [Obatoclax mesylate (GX15-070)] + Cc1nc(Nc2ncc(C(=O)Nc3c(C)cccc3Cl)s2)cc(N2CCN(CCO)CC2)n1

0.741
2.23
